Biological target: Tyrosine-protein kinase ABL1 (Mus musculus)
Sequence (P00520 whole entry): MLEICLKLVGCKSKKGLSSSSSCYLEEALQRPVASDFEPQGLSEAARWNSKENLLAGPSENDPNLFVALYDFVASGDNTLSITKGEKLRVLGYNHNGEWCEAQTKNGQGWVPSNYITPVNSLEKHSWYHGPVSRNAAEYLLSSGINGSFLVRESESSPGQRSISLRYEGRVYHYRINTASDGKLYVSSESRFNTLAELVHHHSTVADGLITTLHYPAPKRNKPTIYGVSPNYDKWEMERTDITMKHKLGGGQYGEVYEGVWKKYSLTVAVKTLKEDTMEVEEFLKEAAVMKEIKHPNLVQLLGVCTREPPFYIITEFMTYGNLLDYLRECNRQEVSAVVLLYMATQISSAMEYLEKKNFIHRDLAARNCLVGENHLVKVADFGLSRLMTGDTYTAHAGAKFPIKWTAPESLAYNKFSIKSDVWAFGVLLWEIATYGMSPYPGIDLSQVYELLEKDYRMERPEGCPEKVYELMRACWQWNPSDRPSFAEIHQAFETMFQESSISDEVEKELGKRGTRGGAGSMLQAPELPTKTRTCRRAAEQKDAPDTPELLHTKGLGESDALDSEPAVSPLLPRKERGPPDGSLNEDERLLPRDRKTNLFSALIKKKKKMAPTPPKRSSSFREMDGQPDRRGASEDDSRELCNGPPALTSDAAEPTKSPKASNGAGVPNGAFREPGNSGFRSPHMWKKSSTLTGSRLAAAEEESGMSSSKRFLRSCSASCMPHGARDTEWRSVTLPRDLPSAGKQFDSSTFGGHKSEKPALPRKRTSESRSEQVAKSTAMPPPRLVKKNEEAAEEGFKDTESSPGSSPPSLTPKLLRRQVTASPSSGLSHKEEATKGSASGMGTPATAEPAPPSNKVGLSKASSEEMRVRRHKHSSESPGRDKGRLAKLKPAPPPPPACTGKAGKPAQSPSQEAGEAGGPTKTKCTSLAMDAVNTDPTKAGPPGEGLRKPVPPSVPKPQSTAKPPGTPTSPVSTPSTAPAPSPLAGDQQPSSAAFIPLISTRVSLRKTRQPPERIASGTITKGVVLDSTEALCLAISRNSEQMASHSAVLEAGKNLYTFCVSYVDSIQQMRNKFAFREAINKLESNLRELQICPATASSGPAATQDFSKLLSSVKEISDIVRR
value-type: IC50 (µM)
Numeric only. Scale: µM

Query: IC50; subject: `CN1CCC(O)(c2nc(-c3ccc(F)cc3)c(-c3ccncc3)o2)CC1`
86.8

* * *

Target: Mitogen-activated protein kinase 1 (Mus musculus)
Sequence (P63085 whole entry): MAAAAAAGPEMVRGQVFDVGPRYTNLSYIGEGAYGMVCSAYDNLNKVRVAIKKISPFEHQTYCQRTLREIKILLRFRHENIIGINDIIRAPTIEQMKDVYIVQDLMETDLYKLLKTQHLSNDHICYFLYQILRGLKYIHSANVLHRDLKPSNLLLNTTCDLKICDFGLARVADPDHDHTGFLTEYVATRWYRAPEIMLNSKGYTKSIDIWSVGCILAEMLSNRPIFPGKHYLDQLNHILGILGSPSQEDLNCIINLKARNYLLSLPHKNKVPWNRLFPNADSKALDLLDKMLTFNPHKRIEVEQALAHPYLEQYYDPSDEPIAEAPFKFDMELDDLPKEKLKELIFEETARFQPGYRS
Assay: Inhibition of ERK2 kinase
value-type: IC50

Query: IC50; subject: `CN1CCC(O)(c2nc(-c3ccc(F)cc3)c(-c3ccncc3)o2)CC1`
> 10 µM

* * *

Biological target: Proto-oncogene tyrosine-protein kinase Src (Gallus gallus)
Experiment: Inhibition of c-src kinase
value-type: IC50 (µM)
Numeric only. Scale: µM

Query: IC50; subject: `CN1CCC(O)(c2nc(-c3ccc(F)cc3)c(-c3ccncc3)o2)CC1`
22.7
